# EXPERIMENT: Single-turnover
# Parameters: species or system [13, 20]
# TEST SETTINGS: read-out: Kd (incoming nucleotide, Pol•DNA complex); Pol κ; opposite template dA; 37 °C
OUTCOME MEASURE: pKd
Numbers only, as −log10 of the molar value.

Data request, read-out pKd, for Cc1cn([C@@H]2C[C@@H](O)[C@H](COP(=O)(O)OP(=O)(O)OP(=O)(O)O)O2)c(=O)[nH]c1=O [L-TBV-TP, β-L-2′-deoxythymidine 5′-triphosphate]
4.05

====

# EXPERIMENT: Single-turnover
# Set-up: species or system [13, 20]
# TEST SETTINGS: read-out: Kd (incoming nucleotide, Pol•DNA complex); Pol ι; opposite template dC; 37 °C
OUTCOME MEASURE: pKd
Give bare numbers, as −log10 of the molar value.

C=C1[C@H](COP(=O)(O)OP(=O)(O)OP(=O)(O)O)[C@@H](O)C[C@@H]1n1cnc2c(=O)[nH]c(N)nc21 [ETV-TP, entecavir 5′-triphosphate]	4.48

Quick one: pKd for Nc1nc2c(ncn2[C@H]2C[C@H](O)[C@@H](COP(=O)(O)OP(=O)(O)OP(=O)(O)O)O2)c(=O)[nH]1 ?
3.85

====

# EXPERIMENT: Single-turnover
# Design: species or system [13, 20]
# TEST SETTINGS: read-out: Kd (incoming nucleotide, Pol•DNA complex); Pol ι; opposite template dT; 37 °C
OUTCOME MEASURE: Kd (µM)
Answers are plain numbers, in µM.

Could you tell me which Kd is on file for Nc1ncnc2c1ncn2CCOCP(=O)(O)OP(=O)(O)OP(=O)(O)O ?
180

====

# EXPERIMENT: Single-turnover
# Set-up: species or system [13, 20]
# TEST SETTINGS: read-out: Kd (incoming nucleotide, Pol•DNA complex); Rev1; opposite template dT; 37 °C
OUTCOME MEASURE: Kd (µM)
Answers are plain numbers, in µM.

I am curious: what Kd value has been reported for Nc1ncnc2c1ncn2CCOCP(=O)(O)OP(=O)(O)OP(=O)(O)O [PMEA-DP] ?
120

====

# EXPERIMENT: Single-turnover
# Parameters: species or system [13, 20]
# TEST SETTINGS: read-out: Kd (incoming nucleotide, Pol•DNA complex); Pol κ; opposite template dC; 37 °C
OUTCOME MEASURE: pKd
One number for each entry, as −log10 of the molar value.

Nc1nc2c(ncn2[C@H]2C[C@H](O)[C@@H](COP(=O)(O)OP(=O)(O)OP(=O)(O)O)O2)c(=O)[nH]1	4.97

Okay, now this compound:
Suppose we examine the compound C=C1[C@H](COP(=O)(O)OP(=O)(O)OP(=O)(O)O)[C@@H](O)C[C@@H]1n1cnc2c(=O)[nH]c(N)nc21 [ETV-TP, entecavir 5′-triphosphate] ; what pKd value has been reported?
5.38

====

# EXPERIMENT: Single-turnover
# Set-up: species or system [13, 20]
# TEST SETTINGS: read-out: Kd (incoming nucleotide, Pol•DNA complex); Pol λ; opposite template dC; 37 °C
OUTCOME MEASURE: Kd (µM)
Numbers only, in µM.

Tell me the measured Kd of C=C1[C@H](COP(=O)(O)OP(=O)(O)OP(=O)(O)O)[C@@H](O)C[C@@H]1n1cnc2c(=O)[nH]c(N)nc21 [ETV-TP, entecavir 5′-triphosphate] , please.
0.09

The measured values listed here are drawn from paper PMC3259259.
